src = patent US20240109974A1

Collected % Relative activity (WT antibody/test antibody) values appear next to each entry.
measurement_target: T1, human TNFR2 on the surface of CHO-TNFR2 cells (human, UniProt P20333 23-461)
T1 construct: whole, on cells
T1 sequence (looked up): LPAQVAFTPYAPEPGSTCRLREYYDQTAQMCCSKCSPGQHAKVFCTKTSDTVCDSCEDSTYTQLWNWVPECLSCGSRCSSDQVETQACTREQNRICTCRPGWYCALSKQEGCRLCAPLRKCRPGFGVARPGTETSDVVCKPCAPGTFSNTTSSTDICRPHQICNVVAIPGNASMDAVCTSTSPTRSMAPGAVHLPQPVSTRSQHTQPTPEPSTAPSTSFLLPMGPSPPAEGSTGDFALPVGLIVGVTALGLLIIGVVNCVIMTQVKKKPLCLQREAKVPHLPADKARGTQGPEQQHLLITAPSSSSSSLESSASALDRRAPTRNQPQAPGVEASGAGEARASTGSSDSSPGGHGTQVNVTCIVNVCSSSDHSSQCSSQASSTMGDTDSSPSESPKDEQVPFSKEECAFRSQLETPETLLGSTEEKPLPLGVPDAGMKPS
assay_text: competition flow cytometry on CHO-TNFR2 cells, competitor TNFα-biotin; AUC against 224-WT
Procedure: CHO stable cells highly expressing human TNFR2 were used for the experiment (the same as CHO-TNFR2 in Example 4). The CHO-TNFR2 cells were digested, washed twice with DPBS, then stained with Live/Dead (L/D) (20 minutes at room temperature), and plated at a density of 1×10⁵ cells/50 μl/well. […] The mixture was washed twice with a staining buffer, and then 150 μl of staining buffer was added to resuspend the cells; signals were detected by a flow cytometer (Thermo Attune NxT). […]
property: % Relative activity (WT antibody/test antibody) (%)

224-Hu6 (antibody, V domains shown, Humanized form of #224; also called VH8 + VL7) VH: QVQLVQSGAEVKKPGASVKVSCKASGFNNKDIYMHWVRQAPGQGLEWIGRIDPATGNTKHDPKFQDRVTMTSDTSTNTVYMELSSLRSEDTAVYYCARSPYGDFGAMDYWGQGTLVTVSS VL: DIQMTQSPSSLSASVGDRVTITCTASSSVSSNYLHWYQQKPGSSPKLWIYSTSNLPSGVPSRFSGSGSGTDFTLTISSLQPEDFATYYCHQYHRSPWTFGQGTKVEIK = 99.4
224-Hu2 (antibody, V domains shown, Humanized form of #224; also called VH9 + VL7) VH: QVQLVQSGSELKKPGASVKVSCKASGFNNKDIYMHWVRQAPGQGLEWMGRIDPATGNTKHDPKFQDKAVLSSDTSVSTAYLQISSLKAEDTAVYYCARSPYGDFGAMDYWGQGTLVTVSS VL: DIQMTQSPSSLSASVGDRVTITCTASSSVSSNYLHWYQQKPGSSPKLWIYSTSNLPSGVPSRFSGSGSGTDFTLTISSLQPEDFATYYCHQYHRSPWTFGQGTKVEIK = 105
224-Hu3 (antibody, V domains shown, Humanized form of #224; also called VH9 + VL8) VH: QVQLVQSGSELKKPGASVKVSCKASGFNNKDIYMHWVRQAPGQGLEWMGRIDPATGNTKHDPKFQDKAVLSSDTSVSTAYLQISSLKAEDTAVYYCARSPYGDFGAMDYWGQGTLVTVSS VL: DIQMTQSPSSLSASVGDRVTITCTASSSVSSNYLHWYQQKPGKAPKLLIYSTSNLPSGVPSRFSGSGSGTDFTLTISSLQAEDAATYYCHQYHRSPWTFGQGTKVEIK = 95.6
224-Hu4 (antibody, V domains shown, Humanized form of #224; also called VH9 + VL6) VH: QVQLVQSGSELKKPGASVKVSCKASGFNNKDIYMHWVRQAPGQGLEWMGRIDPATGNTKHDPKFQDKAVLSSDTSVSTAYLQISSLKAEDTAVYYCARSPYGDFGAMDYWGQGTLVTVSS VL: DIQMTQSPSSLSASVGDRVTITCTASSSVSSNYLHWYQQKPGKAPKLWIYSTSNLPSGVPSRFSGSGSGTDFTLTISSLQPEDFATYYCHQYHRSPWTFGQGTKVEIK = 97.3
